Molecular target: Hmlalpha2 (UniProt P0CY09)
Sequence: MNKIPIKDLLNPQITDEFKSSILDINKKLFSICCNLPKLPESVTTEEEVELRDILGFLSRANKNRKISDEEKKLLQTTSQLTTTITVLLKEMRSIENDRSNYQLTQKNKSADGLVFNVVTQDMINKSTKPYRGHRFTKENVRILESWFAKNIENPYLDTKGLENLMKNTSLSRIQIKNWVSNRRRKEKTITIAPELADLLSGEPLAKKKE
Assay: PBM E-score (8-mer binding enrichment) (E-score (-0.5 to 0.5)); higher = stronger / more preferred TF binding
Conditions: protein concentration: 200 nM; construct: GST-full length
Whole data set: some 33,000 sequences, median “E-score (-0.5 to 0.5)” near -0.04, cut for the highest 2% near 0.36. Many of the other results were omitted from the sample, so the highest values are more common in it than they were.
Parameter: PBM E-score
Respond using a number only.

CTCGTGGA    -0.107

(Q) State its PBM E-score on Hmlalpha2 (UniProt P0CY09): ACCTACTA
(A) 0.081

====

Target: Hmlalpha2 (UniProt P0CY09)
Sequence: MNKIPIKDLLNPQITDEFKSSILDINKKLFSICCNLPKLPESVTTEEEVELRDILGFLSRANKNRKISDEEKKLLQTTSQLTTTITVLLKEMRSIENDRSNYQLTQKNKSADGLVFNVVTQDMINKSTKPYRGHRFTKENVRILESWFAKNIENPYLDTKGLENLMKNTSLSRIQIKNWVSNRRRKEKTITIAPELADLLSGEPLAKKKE
Test: PBM E-score (8-mer binding enrichment) (E-score (-0.5 to 0.5)); higher = stronger / more preferred TF binding
Conditions: protein concentration: 200 nM; construct: GST-full length
The full ranking holds about 33,000 sequences; the median of “E-score (-0.5 to 0.5)” is about -0.04, and the highest 2% start at about 0.36. The sample as a whole holds a higher share of the highest values than the screen did.
sequences and their reported PBM E-score
Give the figure by itself; no unit, no explanation.

Look over these answered cases.
ATATATAC    0.345
ACCATTAG    -0.0407
CATGCGCC    -0.0099
ATATACAA    0.343
TTACCCAA    0.02

(Q) Given CTATACAC , state its recorded PBM E-score.
(A) 0.213

(Q) Form field: reported PBM E-score of GTATACAA
(A) 0.291

(Q) Reported PBM E-score, sequence GGGTATCA : ____
(A) -0.118

(Q) # input sequence: ATATACAG ; wanted: its PBM E-score
(A) 0.131

(Q) Value lookup for PBM E-score; key = ACCTTACC
(A) 0.0897

(Q) I would be grateful if you could share the reported PBM E-score for GTATATAC .
(A) 0.155

====

Target: Hmlalpha2 (UniProt P0CY09)
Sequence: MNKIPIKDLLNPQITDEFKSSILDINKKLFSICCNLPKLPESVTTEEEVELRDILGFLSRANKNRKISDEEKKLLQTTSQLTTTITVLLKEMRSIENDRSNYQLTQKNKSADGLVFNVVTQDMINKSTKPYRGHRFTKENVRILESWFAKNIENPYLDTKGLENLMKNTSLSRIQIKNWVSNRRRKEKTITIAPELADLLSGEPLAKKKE
Test: PBM E-score (8-mer binding enrichment) (E-score (-0.5 to 0.5)); higher = stronger / more preferred TF binding
Conditions: protein concentration: 200 nM; construct: GST-full length
Over roughly 33,000 sequences, “E-score (-0.5 to 0.5)” has its median near -0.04; the highest 2% begin near 0.36. The sample as a whole holds a higher share of the highest values than the screen did.
Item-by-item account of PBM E-score
Write no unit; give the number alone.

Would you please look over these solved cases?
ACAACATA    0.382
CACTACAG    0.126
CACTACAA    0.268
GACTACAC    0.362
ACGGCGAT    -0.0673

(Q) Quick check: PBM E-score of GAATCTTA ?
(A) -0.127

(Q) Please report the recorded PBM E-score for AATTAGGC .
(A) -0.0388

(Q) I'd like to know its PBM E-score. The sequence in question is CGGACGGA
(A) -0.198

(Q) Recorded PBM E-score for ATATAATA , please?
(A) 0.199

(Q) What does the record list as PBM E-score for AACTACAA ?
(A) 0.242
